Tested on: HeLa Kyoto cells
Assay: Relative cell viability in HCHT screening (propidium iodide negative nuclei count)
Type: cell-based
Conditions: HeLa; tpre 1 h with inhibitor, removal, tinc 0.5 h with 1 (10 µM); read-out: GI50, concentration causing 50% cell growth inhibition
Reported Endpoint: GI50
Write down the value, and be sure its unit follows.

-- ask State the recorded GI50 for this entry: [O-][S+]1CC(O)C(O)CS1 (centres unmarked) [compound 22]
-- reply 4400 µM

-- ask State the recorded GI50 for this entry: [O-][S+]1CC(O)C(O)CS1 (centres unmarked) [compound 17]
-- reply 710 µM

----------
Experiment: Relative cell viability in HCHT screening (propidium iodide negative nuclei count)
Assay type: cell-based
Settings: human, HeLa; tpre 6 h with FBS, removal, tinc 0.5 h with 2 (10 µM); read-out: GI50, concentration causing 50% cell growth inhibition
For each entry below, report its GI50 value.

-- ask State the recorded GI50 for this entry: O=C(O)CC[C@H](NC(=O)CN1C(=O)C2SSC1C(=O)N2CCOc1ccccc1)C(=O)O (stereo partly shown)
-- reply > 200 µM

-- ask State the recorded GI50 for this entry: CCN1C(=O)C2SSSSC1C(=O)N2CC(=O)O (stereo not shown)
-- reply > 100 µM

-- ask State the recorded GI50 for this entry: O=C(CN1C(=O)C2SSC1C(=O)N2CCOc1ccccc1)NCC(=O)OC[C@H]1OC(O)[C@H](O)[C@@H](O)[C@@H]1O (stereo partly shown)
-- reply > 200 µM

-- ask State the recorded GI50 for this entry: O=C(O)CNC(=O)c1ccc2c(c1)SSSSS2
-- reply ~105 µM
